Details: in ethanol, 313.15 K

Compound Smiles | solubility (mole fraction)
O=C(N[C@H](Cc1c[nH]c2ccccc12)C(=O)O)OCC1c2ccccc2-c2ccccc21 | 0.00763

* * *

Conditions: in n-propyl acetate, 283.15 K
Measured Attribute: solubility (mole fraction)

Compound Smiles | Measured Attribute | Reported Result
O=C(N[C@H](Cc1c[nH]c2ccccc12)C(=O)O)OCC1c2ccccc2-c2ccccc21 | solubility (mole fraction) | 0.00437

* * *

Conditions: in acetonitrile, 283.15 K

Compound Smiles | solubility (mole fraction)
O=C(N[C@H](Cc1c[nH]c2ccccc12)C(=O)O)OCC1c2ccccc2-c2ccccc21 | 0.00128

* * *

Settings: in n-propyl acetate, 293.15 K
Measured Attribute: solubility (mole fraction)

Compound Smiles | Measured Attribute | Reported Result
O=C(N[C@H](Cc1c[nH]c2ccccc12)C(=O)O)OCC1c2ccccc2-c2ccccc21 | solubility (mole fraction) | 0.00506

* * *

Conditions: in methanol, 288.15 K

Compound Smiles | solubility (mole fraction)
O=C(N[C@H](Cc1c[nH]c2ccccc12)C(=O)O)OCC1c2ccccc2-c2ccccc21 | 0.00437

* * *

Conditions: in methyl acetate, 298.15 K
Measured Attribute: solubility (mole fraction)

Compound Smiles | Reported Result
O=C(N[C@H](Cc1c[nH]c2ccccc12)C(=O)O)OCC1c2ccccc2-c2ccccc21 | 0.0102

* * *

Details: in n-propanol, 323.15 K
Measured Attribute: solubility (mole fraction)

Compound Smiles | Measured Attribute | Reported Result
O=C(N[C@H](Cc1c[nH]c2ccccc12)C(=O)O)OCC1c2ccccc2-c2ccccc21 | solubility (mole fraction) | 0.00825

* * *

Conditions: in isopropanol, 288.15 K
Measured Attribute: solubility (mole fraction)

Compound Smiles | Reported Result
O=C(N[C@H](Cc1c[nH]c2ccccc12)C(=O)O)OCC1c2ccccc2-c2ccccc21 | 0.00206

* * *

Conditions: in n-propyl acetate, 298.15 K
Measured Attribute: solubility (mole fraction)

Compound Smiles | Reported Result
O=C(N[C@H](Cc1c[nH]c2ccccc12)C(=O)O)OCC1c2ccccc2-c2ccccc21 | 0.0055

* * *

Conditions: in ethyl acetate, 298.15 K

Compound Smiles | solubility (mole fraction)
O=C(N[C@H](Cc1c[nH]c2ccccc12)C(=O)O)OCC1c2ccccc2-c2ccccc21 | 0.0079

* * *

Settings: in n-propyl acetate, 288.15 K
Measured Attribute: solubility (mole fraction)

Compound Smiles | Reported Result
O=C(N[C@H](Cc1c[nH]c2ccccc12)C(=O)O)OCC1c2ccccc2-c2ccccc21 | 0.00461

* * *

Conditions: in n-propyl acetate, 308.15 K
Measured Attribute: solubility (mole fraction)

Compound Smiles | Reported Result
O=C(N[C@H](Cc1c[nH]c2ccccc12)C(=O)O)OCC1c2ccccc2-c2ccccc21 | 0.00658

* * *

Settings: in methyl acetate, 323.15 K

Compound Smiles | solubility (mole fraction)
O=C(N[C@H](Cc1c[nH]c2ccccc12)C(=O)O)OCC1c2ccccc2-c2ccccc21 | 0.0174

* * *

Conditions: in isopropanol, 308.15 K
Measured Attribute: solubility (mole fraction)

Compound Smiles | Reported Result
O=C(N[C@H](Cc1c[nH]c2ccccc12)C(=O)O)OCC1c2ccccc2-c2ccccc21 | 0.00469

* * *

Conditions: in n-butyl acetate, 313.15 K

Compound Smiles | solubility (mole fraction)
O=C(N[C@H](Cc1c[nH]c2ccccc12)C(=O)O)OCC1c2ccccc2-c2ccccc21 | 0.00581

* * *

Conditions: in isobutanol, 318.15 K

Compound Smiles | solubility (mole fraction)
O=C(N[C@H](Cc1c[nH]c2ccccc12)C(=O)O)OCC1c2ccccc2-c2ccccc21 | 0.00363

* * *

Details: in methanol, 283.15 K
Measured Attribute: solubility (mole fraction)

Compound Smiles | Reported Result
O=C(N[C@H](Cc1c[nH]c2ccccc12)C(=O)O)OCC1c2ccccc2-c2ccccc21 | 0.00434

* * *

Conditions: in acetonitrile, 318.15 K

Compound Smiles | solubility (mole fraction)
O=C(N[C@H](Cc1c[nH]c2ccccc12)C(=O)O)OCC1c2ccccc2-c2ccccc21 | 0.00498

* * *

Conditions: in isopropanol, 298.15 K
Measured Attribute: solubility (mole fraction)

Compound Smiles | Measured Attribute | Reported Result
O=C(N[C@H](Cc1c[nH]c2ccccc12)C(=O)O)OCC1c2ccccc2-c2ccccc21 | solubility (mole fraction) | 0.00309

* * *

Settings: in n-butanol, 308.15 K

Compound Smiles | solubility (mole fraction)
O=C(N[C@H](Cc1c[nH]c2ccccc12)C(=O)O)OCC1c2ccccc2-c2ccccc21 | 0.0046

* * *

Conditions: in isobutanol, 298.15 K
Measured Attribute: solubility (mole fraction)

Compound Smiles | Measured Attribute | Reported Result
O=C(N[C@H](Cc1c[nH]c2ccccc12)C(=O)O)OCC1c2ccccc2-c2ccccc21 | solubility (mole fraction) | 0.0019

* * *

Conditions: in isobutanol, 283.15 K
Measured Attribute: solubility (mole fraction)

Compound Smiles | Reported Result
O=C(N[C@H](Cc1c[nH]c2ccccc12)C(=O)O)OCC1c2ccccc2-c2ccccc21 | 0.00112

* * *

Conditions: in methyl acetate, 288.15 K
Measured Attribute: solubility (mole fraction)

Compound Smiles | Reported Result
O=C(N[C@H](Cc1c[nH]c2ccccc12)C(=O)O)OCC1c2ccccc2-c2ccccc21 | 0.00881

* * *

Settings: in methanol, 283.17 K
Measured Attribute: solubility (mole fraction)

Compound Smiles | Measured Attribute | Reported Result
O=C(N[C@H](Cc1c[nH]c2ccccc12)C(=O)O)OCC1c2ccccc2-c2ccccc21 | solubility (mole fraction) | 0.00446

* * *

Details: in methanol, 283.18 K

Compound Smiles | solubility (mole fraction)
O=C(N[C@H](Cc1c[nH]c2ccccc12)C(=O)O)OCC1c2ccccc2-c2ccccc21 | 0.00452

* * *

Settings: in methanol, 288.18 K

Compound Smiles | solubility (mole fraction)
O=C(N[C@H](Cc1c[nH]c2ccccc12)C(=O)O)OCC1c2ccccc2-c2ccccc21 | 0.00455

* * *

Conditions: in acetonitrile, 308.15 K

Compound Smiles | solubility (mole fraction)
O=C(N[C@H](Cc1c[nH]c2ccccc12)C(=O)O)OCC1c2ccccc2-c2ccccc21 | 0.00296

* * *

Details: in n-propanol, 298.15 K

Compound Smiles | solubility (mole fraction)
O=C(N[C@H](Cc1c[nH]c2ccccc12)C(=O)O)OCC1c2ccccc2-c2ccccc21 | 0.00378

* * *

Conditions: in methyl acetate, 303.15 K

Compound Smiles | solubility (mole fraction)
O=C(N[C@H](Cc1c[nH]c2ccccc12)C(=O)O)OCC1c2ccccc2-c2ccccc21 | 0.0112

* * *

Settings: in n-propanol, 283.15 K
Measured Attribute: solubility (mole fraction)

Compound Smiles | Measured Attribute | Reported Result
O=C(N[C@H](Cc1c[nH]c2ccccc12)C(=O)O)OCC1c2ccccc2-c2ccccc21 | solubility (mole fraction) | 0.00255

* * *

Conditions: in n-butanol, 283.15 K

Compound Smiles | solubility (mole fraction)
O=C(N[C@H](Cc1c[nH]c2ccccc12)C(=O)O)OCC1c2ccccc2-c2ccccc21 | 0.00247

* * *

Conditions: in acetone, 293.15 K
Measured Attribute: solubility (mole fraction)

Compound Smiles | Measured Attribute | Reported Result
O=C(N[C@H](Cc1c[nH]c2ccccc12)C(=O)O)OCC1c2ccccc2-c2ccccc21 | solubility (mole fraction) | 0.0407

* * *

Conditions: in isobutanol, 303.15 K

Compound Smiles | solubility (mole fraction)
O=C(N[C@H](Cc1c[nH]c2ccccc12)C(=O)O)OCC1c2ccccc2-c2ccccc21 | 0.00222

* * *

Settings: in n-butyl acetate, 318.15 K

Compound Smiles | solubility (mole fraction)
O=C(N[C@H](Cc1c[nH]c2ccccc12)C(=O)O)OCC1c2ccccc2-c2ccccc21 | 0.00636

* * *

Details: in isobutanol, 308.15 K

Compound Smiles | solubility (mole fraction)
O=C(N[C@H](Cc1c[nH]c2ccccc12)C(=O)O)OCC1c2ccccc2-c2ccccc21 | 0.00244

* * *

Conditions: in acetone, 283.15 K

Compound Smiles | solubility (mole fraction)
O=C(N[C@H](Cc1c[nH]c2ccccc12)C(=O)O)OCC1c2ccccc2-c2ccccc21 | 0.0377

* * *

Settings: in ethyl acetate, 323.15 K
Measured Attribute: solubility (mole fraction)

Compound Smiles | Reported Result
O=C(N[C@H](Cc1c[nH]c2ccccc12)C(=O)O)OCC1c2ccccc2-c2ccccc21 | 0.0123

* * *

Details: in n-butanol, 298.15 K

Compound Smiles | solubility (mole fraction)
O=C(N[C@H](Cc1c[nH]c2ccccc12)C(=O)O)OCC1c2ccccc2-c2ccccc21 | 0.0034

* * *

Conditions: in n-butanol, 288.15 K
Measured Attribute: solubility (mole fraction)

Compound Smiles | Measured Attribute | Reported Result
O=C(N[C@H](Cc1c[nH]c2ccccc12)C(=O)O)OCC1c2ccccc2-c2ccccc21 | solubility (mole fraction) | 0.00264

* * *

Conditions: in acetone, 323.15 K
Measured Attribute: solubility (mole fraction)

Compound Smiles | Reported Result
O=C(N[C@H](Cc1c[nH]c2ccccc12)C(=O)O)OCC1c2ccccc2-c2ccccc21 | 0.0651

* * *

Settings: in n-butyl acetate, 323.15 K

Compound Smiles | solubility (mole fraction)
O=C(N[C@H](Cc1c[nH]c2ccccc12)C(=O)O)OCC1c2ccccc2-c2ccccc21 | 0.00743
